- Tested on: NCI-H2126
- assay.procedure: relative viability (nuclei count vs DMSO), 5 days (fraction); higher = more cells survive
- assay.context: first compound 0.002 µM
Please use Criterion met for relative viability under 0.6 and Criterion not met for everything else, ties included.

Observe how each entry below is paired with its result.
CC(=O)O[C@@]12CO[C@@H]1C[C@H](O)[C@@]1(C)C(=O)[C@H](O)C3=C(C)[C@@H](OC(=O)[C@H](O)[C@@H](NC(=O)OC(C)(C)C)c4ccccc4)C[C@@](O)([C@@H](OC(=O)c4ccccc4)[C@H]21)C3(C)C [Docetaxel] + Cc1nc(Nc2ncc(C(=O)Nc3c(C)cccc3Cl)s2)cc(N2CCN(CCO)CC2)n1 [Dasatinib] (partner 0.075 µM) ... Criterion met
CC(=O)O[C@@]12CO[C@@H]1C[C@H](O)[C@@]1(C)C(=O)[C@H](O)C3=C(C)[C@@H](OC(=O)[C@H](O)[C@@H](NC(=O)OC(C)(C)C)c4ccccc4)C[C@@](O)([C@@H](OC(=O)c4ccccc4)[C@H]21)C3(C)C [Docetaxel] + COc1cccc2cc(-c3nc([C@H]4CC[C@H](C(=O)O)CC4)n4ncnc(N)c34)[nH]c12 [OSI-027] (partner 0.5 µM) ... Criterion met

// next entry
Q: Take the compound CC(=O)O[C@@]12CO[C@@H]1C[C@H](O)[C@@]1(C)C(=O)[C@H](O)C3=C(C)[C@@H](OC(=O)[C@H](O)[C@@H](NC(=O)OC(C)(C)C)c4ccccc4)C[C@@](O)([C@@H](OC(=O)c4ccccc4)[C@H]21)C3(C)C [Docetaxel] + C[C@]1(O)C[C@@H](c2nc(-c3ccc4ccc(-c5ccccc5)nc4c3)c3c(N)nccn32)C1 [Linsitinib] (partner 1 µM) and say whether its relative viability is less than 0.6.
A: Criterion not met
